- TARGET_OR_SYSTEM: HLA-B*35:01
- ASSAY_PROTOCOL: IEDB peptide-MHC binding, purified MHC/competitive/fluorescence; filed as Kd, often an IC50 or EC50 that approximates it; bounds were set here for any values at or beyond the usual limits of such assays
- ASSAY_CONDITIONS: source organism: Bacillus cereus G9241
READOUT_LABEL: pKd
One number for each entry, as −log10 of the molar value.

q: Notebook: pull reported pKd for HLA-B*35:01, entry LFAGSIAAY
a: 7.28

====

- TARGET_OR_SYSTEM: HLA-A*23:01
- ASSAY_PROTOCOL: IEDB peptide-MHC binding, purified MHC/direct/fluorescence; filed as Kd, often an IC50 or EC50 that approximates it; bounds were set here for any values at or beyond the usual limits of such assays
- ASSAY_CONDITIONS: source organism: Rickettsia felis URRWXCal2
READOUT_LABEL: pKd
Answers are plain numbers, as −log10 of the molar value.

q: What does the record list as pKd for GYTVARSQL ?
a: 6.33

====

- TARGET_OR_SYSTEM: HLA-C*05:01
- ASSAY_PROTOCOL: IEDB peptide-MHC binding, purified MHC/direct/fluorescence; filed as Kd, often an IC50 or EC50 that approximates it; bounds were set here for any values at or beyond the usual limits of such assays
- ASSAY_CONDITIONS: source organism: Vaccinia virus WR
READOUT_LABEL: Kd (nM)
One number for each entry, in nM.

q: What does the record list as Kd for KIDDMIEEV ?
a: 124

====

- TARGET_OR_SYSTEM: HLA-B*51:01
- ASSAY_PROTOCOL: IEDB peptide-MHC binding, purified MHC/direct/fluorescence; filed as Kd, often an IC50 or EC50 that approximates it; bounds were set here for any values at or beyond the usual limits of such assays
- ASSAY_CONDITIONS: source organism: Influenza A virus (A/Wisconsin/4755/1994(H1N1))
READOUT_LABEL: Kd

q: What does the record list as Kd for ITKEKKEEL ?
a: ≥ 20 µM

====

- TARGET_OR_SYSTEM: HLA-A*02:01
- ASSAY_PROTOCOL: IEDB peptide-MHC binding, purified MHC/competitive/fluorescence; bounds were set here for any values at or beyond the usual limits of such assays
- ASSAY_CONDITIONS: source organism: Vaccinia virus WR
READOUT_LABEL: IC50

>>> result("FYTRVLKPS")
"≥ 110 µM"

q: What does the record list as IC50 for IKHVGLITC ?
a: ≥ 622 µM

====

- TARGET_OR_SYSTEM: HLA-B*27:05
- ASSAY_PROTOCOL: IEDB peptide-MHC binding, purified MHC/direct/fluorescence; filed as Kd, often an IC50 or EC50 that approximates it; bounds were set here for any values at or beyond the usual limits of such assays
- ASSAY_CONDITIONS: source organism: Camelpox virus M-96
pKd: −log10 of the molar value.
READOUT_LABEL: pKd

q: What does the record list as pKd for ETIEILRNY ?
a: ≤ 4.70

====

- TARGET_OR_SYSTEM: HLA-B*44:03
- ASSAY_PROTOCOL: IEDB peptide-MHC binding, purified MHC/competitive/radioactivity; filed as Kd, often an IC50 or EC50 that approximates it; bounds were set here for any values at or beyond the usual limits of such assays
- ASSAY_CONDITIONS: source organism: SARS coronavirus Tor2
For each record, write down the corresponding pKd.
Answers are plain numbers, as −log10 of the molar value.

>>> quantitative_result("DEWSVATFYL")
6.45
>>> quantitative_result("HEFVDEFYA")
5.25
>>> quantitative_result("EEAARCMRSL")
6.39
>>> quantitative_result("YEAMYTPHT")
4.89
>>> quantitative_result("IEYSDFATSA")
6.18
>>> quantitative_result("EEILGTVSW")
8.59
>>> quantitative_result("PEANMDQESF")
4.97

Proceeding to the next sequence to report its pKd.
q: Notebook: pull reported pKd for HLA-B*44:03, entry SEFDRDAAM
a: 6.27

====

- TARGET_OR_SYSTEM: HLA-A*02:01
- ASSAY_PROTOCOL: IEDB peptide-MHC binding, purified MHC/direct/fluorescence; filed as Kd, often an IC50 or EC50 that approximates it; bounds were set here for any values at or beyond the usual limits of such assays
- ASSAY_CONDITIONS: source organism: Salmonella enterica subsp. enterica serovar Typhimurium
READOUT_LABEL: pKd
One number for each entry, as −log10 of the molar value.

q: Notebook: pull reported pKd for HLA-A*02:01, entry LLQGVPFHV
a: 6.96

====

- TARGET_OR_SYSTEM: HLA-B*45:01
- ASSAY_PROTOCOL: IEDB peptide-MHC binding, purified MHC/competitive/radioactivity; filed as Kd, often an IC50 or EC50 that approximates it; bounds were set here for any values at or beyond the usual limits of such assays
- ASSAY_CONDITIONS: source organism: Lassa virus Josiah
READOUT_LABEL: Kd

q: What does the record list as Kd for REPTDLKQF ?
a: ≥ 77.7 µM

====

- TARGET_OR_SYSTEM: HLA-B*40:01
- ASSAY_PROTOCOL: IEDB peptide-MHC binding, purified MHC/direct/fluorescence; filed as Kd, often an IC50 or EC50 that approximates it; bounds were set here for any values at or beyond the usual limits of such assays
- ASSAY_CONDITIONS: source organism: Bacillus anthracis
READOUT_LABEL: Kd

q: What does the record list as Kd for VTECKLIYY ?
a: ≥ 20 µM

====

- TARGET_OR_SYSTEM: HLA-B*45:01
- ASSAY_PROTOCOL: IEDB peptide-MHC binding, purified MHC/competitive/radioactivity; filed as Kd, often an IC50 or EC50 that approximates it; bounds were set here for any values at or beyond the usual limits of such assays
- ASSAY_CONDITIONS: source organism: Lymphocytic choriomeningitis virus (strain Armstrong)
READOUT_LABEL: Kd

q: What does the record list as Kd for ADNMITEML ?
a: ≥ 77.7 µM

====

- TARGET_OR_SYSTEM: HLA-B*53:01
- ASSAY_PROTOCOL: IEDB peptide-MHC binding, purified MHC/competitive/fluorescence; bounds were set here for any values at or beyond the usual limits of such assays
- ASSAY_CONDITIONS: source organism: Rattus norvegicus
pIC50: −log10 of the molar value.
READOUT_LABEL: pIC50

q: What does the record list as pIC50 for SLLERGQQLGV ?
a: ≤ 4.70

====

- TARGET_OR_SYSTEM: HLA-B*58:01
- ASSAY_PROTOCOL: IEDB peptide-MHC binding, purified MHC/direct/fluorescence; filed as Kd, often an IC50 or EC50 that approximates it; bounds were set here for any values at or beyond the usual limits of such assays
- ASSAY_CONDITIONS: source organism: Influenza A virus (A/swine/Bakum/1832/2000(H1N2))
READOUT_LABEL: Kd (nM)
One number for each entry, in nM.

q: What does the record list as Kd for RGINDRNFW ?
a: 41.5

====

- TARGET_OR_SYSTEM: HLA-A*02:03
- ASSAY_PROTOCOL: IEDB peptide-MHC binding, purified MHC/competitive/radioactivity; filed as Kd, often an IC50 or EC50 that approximates it; bounds were set here for any values at or beyond the usual limits of such assays
- ASSAY_CONDITIONS: source organism: Dengue virus 4 Philippines/H241/1956
READOUT_LABEL: pKd
One number for each entry, as −log10 of the molar value.

>>> quantitative_result("GVSGNIVSSV")
7.51
>>> quantitative_result("LLFLNDMGKV")
8.17

q: Notebook: pull reported pKd for HLA-A*02:03, entry NIHTAITQV
a: 7.58

====

- TARGET_OR_SYSTEM: HLA-B*18:01
- ASSAY_PROTOCOL: IEDB peptide-MHC binding, purified MHC/competitive/radioactivity; filed as Kd, often an IC50 or EC50 that approximates it; bounds were set here for any values at or beyond the usual limits of such assays
- ASSAY_CONDITIONS: source organism: Lymphocytic choriomeningitis virus (strain Armstrong)
READOUT_LABEL: Kd

q: What does the record list as Kd for ADNMITEML ?
a: ≥ 77.5 µM

====

- TARGET_OR_SYSTEM: HLA-A*68:02
- ASSAY_PROTOCOL: IEDB peptide-MHC binding, purified MHC/competitive/radioactivity; filed as Kd, often an IC50 or EC50 that approximates it; bounds were set here for any values at or beyond the usual limits of such assays
- ASSAY_CONDITIONS: source organism: Dengue virus 2 Peru/IQT2913/1996
READOUT_LABEL: Kd (nM)
Give bare numbers, in nM.

q: What does the record list as Kd for QVMLLVLCV ?
a: 143
